Observed IC50 values for human Glycogen Synthase Kinase-3 beta (hGSK-3β) (Homo sapiens, UniProt P49841) are listed in what follows.
Unit nM implied. Number only.

Answered examples (2):
INSERT INTO assay_data (molecule, endpointunit, recordedmeasurement) VALUES
  ('O=C1Nc2ncccc2Nc2nnc(Cl)cc21', 'nM', 101),
  ('NC(=O)c1cccc2c1Nc1ccccc1C(=O)N2 [Example 6, reference compound]', 'nM', 57000);

Moving on to another molecule below.
Given item O=C1Nc2cc([N+](=O)[O-])ccc2Nc2nnc(Cl)cc21 , the value recorded as its IC50 is 625
